// data source = the supplement of paper PMC3334620

As shown below, each of these sequences has a reported PBM E-score value.
Target: Zap1 (UniProt P47043)
Sequence: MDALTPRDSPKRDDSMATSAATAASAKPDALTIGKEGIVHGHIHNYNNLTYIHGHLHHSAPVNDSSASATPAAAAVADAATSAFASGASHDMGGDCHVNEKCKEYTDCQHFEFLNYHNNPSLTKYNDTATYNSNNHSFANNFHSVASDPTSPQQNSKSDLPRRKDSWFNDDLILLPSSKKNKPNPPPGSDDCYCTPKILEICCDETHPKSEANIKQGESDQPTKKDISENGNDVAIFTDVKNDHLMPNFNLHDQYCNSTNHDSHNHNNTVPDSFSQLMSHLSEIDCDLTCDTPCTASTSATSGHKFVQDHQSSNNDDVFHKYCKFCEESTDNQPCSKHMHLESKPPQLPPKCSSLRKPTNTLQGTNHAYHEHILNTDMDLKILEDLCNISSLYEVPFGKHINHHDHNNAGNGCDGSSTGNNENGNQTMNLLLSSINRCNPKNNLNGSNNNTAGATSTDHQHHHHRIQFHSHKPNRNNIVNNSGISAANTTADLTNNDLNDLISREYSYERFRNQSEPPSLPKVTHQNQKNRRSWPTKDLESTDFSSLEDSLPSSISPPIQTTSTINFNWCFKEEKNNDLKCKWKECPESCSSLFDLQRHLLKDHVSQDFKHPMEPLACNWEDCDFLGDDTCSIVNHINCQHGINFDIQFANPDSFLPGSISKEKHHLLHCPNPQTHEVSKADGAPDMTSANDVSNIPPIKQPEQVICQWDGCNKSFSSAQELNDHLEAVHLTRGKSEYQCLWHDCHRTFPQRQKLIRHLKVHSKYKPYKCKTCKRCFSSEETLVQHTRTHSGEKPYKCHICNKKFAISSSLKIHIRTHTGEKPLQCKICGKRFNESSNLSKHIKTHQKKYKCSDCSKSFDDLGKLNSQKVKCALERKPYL
Experiment: PBM E-score (8-mer binding enrichment) (E-score (-0.5 to 0.5)); higher = stronger / more preferred TF binding
Details: protein concentration: 200 nM; construct: GST-full length
In all, about 33,000 sequences were measured (“E-score (-0.5 to 0.5)”: median about -0.021, highest 2% from about 0.32 on). Only a selection was taken, and the highest values are over-represented in it overall.
Answer with the value's number alone.

>>> print(df.to_string())
   sequence_text  parameter_measured  test_value
0       TAACCCTA         PBM E-score       0.462

Notebook: `ATGGGTAG` , PBM E-score read as 0.238

Documented PBM E-score of `CGGGGCTA` : -0.15

PBM E-score measured on `AGTTAACC` = 0.289

* * *

Listed next: entries and their corresponding PBM E-score.
Molecular target: Zap1 (UniProt P47043)
Sequence: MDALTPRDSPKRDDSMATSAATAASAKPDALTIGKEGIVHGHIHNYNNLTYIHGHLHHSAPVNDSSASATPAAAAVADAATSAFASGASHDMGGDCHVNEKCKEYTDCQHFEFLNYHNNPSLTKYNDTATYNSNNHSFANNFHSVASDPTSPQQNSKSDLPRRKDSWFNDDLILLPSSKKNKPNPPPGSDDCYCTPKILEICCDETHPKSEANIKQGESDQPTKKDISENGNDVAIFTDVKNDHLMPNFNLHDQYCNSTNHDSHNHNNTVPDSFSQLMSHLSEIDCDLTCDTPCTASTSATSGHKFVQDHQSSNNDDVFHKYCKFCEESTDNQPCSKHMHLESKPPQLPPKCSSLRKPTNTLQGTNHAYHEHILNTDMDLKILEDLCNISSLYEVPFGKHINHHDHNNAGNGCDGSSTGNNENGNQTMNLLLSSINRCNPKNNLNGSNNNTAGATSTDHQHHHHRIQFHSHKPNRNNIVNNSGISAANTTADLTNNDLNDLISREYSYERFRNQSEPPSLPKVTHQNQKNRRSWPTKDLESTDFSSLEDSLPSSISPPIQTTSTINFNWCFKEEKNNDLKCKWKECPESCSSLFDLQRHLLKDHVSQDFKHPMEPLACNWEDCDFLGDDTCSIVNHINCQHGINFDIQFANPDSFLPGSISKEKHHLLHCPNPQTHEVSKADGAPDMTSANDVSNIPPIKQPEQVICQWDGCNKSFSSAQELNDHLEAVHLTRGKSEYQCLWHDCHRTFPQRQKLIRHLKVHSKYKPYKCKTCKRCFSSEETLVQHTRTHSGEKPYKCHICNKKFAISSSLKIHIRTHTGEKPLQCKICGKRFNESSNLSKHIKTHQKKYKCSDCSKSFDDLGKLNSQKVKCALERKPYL
Test: PBM E-score (8-mer binding enrichment) (E-score (-0.5 to 0.5)); higher = stronger / more preferred TF binding
Conditions: protein concentration: 200 nM; construct: GST-full length
Whole data set: some 33,000 sequences, median “E-score (-0.5 to 0.5)” near -0.021, cut for the highest 2% near 0.32. The sample as a whole holds a higher share of the highest values than the screen did.
Would you mind answering with just the numeric figure?

>>> print(df.to_string())
   sequence_text  parameter_measured  test_value
0       AGCAACCG         PBM E-score     -0.0288
1       TGCCCTAA         PBM E-score      -0.171
2       GGAGTTTA         PBM E-score     -0.0721
3       CCGGAGGA         PBM E-score      -0.228
4       GACTCGGA         PBM E-score      -0.237

The value of PBM E-score recorded for `GGCATCCA` when tested on Zap1 (UniProt P47043) reads -0.107

For `TGTAATAA` on Zap1 (UniProt P47043), measured PBM E-score was 0.133

Simply: `CCTCTGTC` , Zap1 (UniProt P47043), PBM E-score = 0.0337

Entry `AAGACCCC` under Zap1 (UniProt P47043) had PBM E-score of 0.323

With Zap1 (UniProt P47043) as the test system, `GTTGTATA` showed PBM E-score of 0.117

Record for `AGAACCAG` under target or system Zap1 (UniProt P47043): PBM E-score reported as 0.0863

* * *

Biological target: Zap1 (UniProt P47043)
Sequence: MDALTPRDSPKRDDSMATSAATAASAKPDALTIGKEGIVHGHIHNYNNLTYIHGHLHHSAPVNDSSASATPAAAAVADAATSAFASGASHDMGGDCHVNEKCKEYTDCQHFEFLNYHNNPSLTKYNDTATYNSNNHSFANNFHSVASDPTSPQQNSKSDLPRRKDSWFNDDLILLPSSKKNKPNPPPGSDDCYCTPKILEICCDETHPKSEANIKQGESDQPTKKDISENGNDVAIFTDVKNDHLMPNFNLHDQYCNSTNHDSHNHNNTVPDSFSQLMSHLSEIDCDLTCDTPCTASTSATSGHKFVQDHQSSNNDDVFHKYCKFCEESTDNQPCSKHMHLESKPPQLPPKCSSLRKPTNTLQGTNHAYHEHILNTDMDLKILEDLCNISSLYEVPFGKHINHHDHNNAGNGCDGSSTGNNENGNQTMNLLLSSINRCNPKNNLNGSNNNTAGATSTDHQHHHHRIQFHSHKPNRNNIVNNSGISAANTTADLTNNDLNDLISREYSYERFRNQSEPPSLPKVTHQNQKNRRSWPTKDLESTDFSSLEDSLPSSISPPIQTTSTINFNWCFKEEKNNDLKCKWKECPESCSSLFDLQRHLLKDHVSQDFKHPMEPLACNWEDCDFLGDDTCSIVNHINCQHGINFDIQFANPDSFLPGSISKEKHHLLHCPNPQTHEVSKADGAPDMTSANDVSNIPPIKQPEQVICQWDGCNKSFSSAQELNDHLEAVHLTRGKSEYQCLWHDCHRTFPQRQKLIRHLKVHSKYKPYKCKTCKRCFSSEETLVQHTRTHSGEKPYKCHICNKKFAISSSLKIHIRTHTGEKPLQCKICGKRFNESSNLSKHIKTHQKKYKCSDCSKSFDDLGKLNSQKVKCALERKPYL
Assay: PBM E-score (8-mer binding enrichment) (E-score (-0.5 to 0.5)); higher = stronger / more preferred TF binding
Conditions: protein concentration: 200 nM; construct: GST-full length
The full ranking holds about 33,000 sequences; the median of “E-score (-0.5 to 0.5)” is about -0.021, and the highest 2% start at about 0.32. Many of the other results were omitted from the sample, so the highest values are more common in it than they were.
Is PBM E-score at least 0.04? Then Condition met. If not, Condition not met.

>>> print(df.to_string())
   sequence_text     category_label
0       ATTGTGAC      Condition met
1       GTTCAAAA  Condition not met
2       AGCGTAAC      Condition met
3       AACCTACG      Condition met
4       ATGCCACC  Condition not met
5       AGGGTAAC      Condition met
6       AAGCTTGT      Condition met
7       CCGGTTAG      Condition met

Problem: Does `GGGGTAAA` have a reported PBM E-score of at least 0.04?
Result: Condition met

Problem: Check if PBM E-score >= 0.04 (inclusive). Item: `GGTGTAAC`
Result: Condition met

Problem: PBM E-score >= 0.04 for `CCCCCCAA` ?
Result: Condition not met
